Values were extracted from ChEMBL document CHEMBL4196051.

- assayProcedure: Resistance Index, ratio of EC50 for chloroquine-resistant Plasmodium falciparum RKL9 to EC50 for chloroquine-sensitive Plasmodium falciparum 3D7
- Type: functional
readoutName: Ratio EC50
Number only, no unit.

Sample records with Ratio EC50:
COc1cccc(C2=NN(c3ccc(S(N)(=O)=O)cc3)C(c3cn(-c4ccccc4)nc3-c3ccc(C)cc3)C2)c1OC (centres undefined) : 0.97
COc1ccc(C2=NN(c3ccc(S(N)(=O)=O)cc3)C(c3cn(-c4ccccc4)nc3-c3ccccc3)C2)cc1 (centres undefined) : 1.25
COc1ccc(C2=NN(c3ccc(S(N)(=O)=O)cc3)C(c3cn(-c4ccccc4)nc3-c3ccc(C)cc3)C2)cc1 (centres undefined) : 0.94

Next up:
Specify measured Ratio EC50 for COc1ccc(C2=NN(c3ccc(S(N)(=O)=O)cc3)C(c3cn(-c4ccccc4)nc3-c3ccc(Cl)cc3)C2)cc1 (centres undefined) .
1.31

###

- System: Heme
- assayProcedure: Inhibition of heme crystal growth
readoutName: pIC50
Reminder that pIC50 means the negative base-10 logarithm of the concentration expressed in mol/L.

Specify measured pIC50 for Clc1ccc(COC(Cn2ccnc2)c2ccc(Cl)cc2Cl)c(Cl)c1 (stereo unspecified) .
4.67

###

- assayProcedure: Selectivity index, ratio of CC50 for African green monkey Vero cells to EC50 for chloroquine-resistant Plasmodium falciparum RKL9
- Type: toxicity
- runParameters: read-out: Ratio CC50/EC50
Reported selectivity ratio values for a set of compounds

NS(=O)(=O)c1ccc(N2N=C(c3ccc(Br)cc3)CC2c2cn(-c3ccccc3)nc2-c2ccc(F)cc2)cc1 (configuration not stated) : 25.9

Next up:
Specify measured selectivity ratio for COc1cccc(C2=NN(c3ccc(S(N)(=O)=O)cc3)C(c3cn(-c4ccccc4)nc3-c3ccc(C)cc3)C2)c1OC (configuration not stated) .
> 60

###

- assayProcedure: Selectivity index, ratio of CC50 for African green monkey Vero cells to EC50 for chloroquine-sensitive Plasmodium falciparum 3D7
- Type: toxicity
- runParameters: read-out: Ratio CC50/EC50
readoutName: selectivity ratio

Sample records with selectivity ratio:
Cc1ccc(C2=NN(c3ccc(S(N)(=O)=O)cc3)C(c3cn(-c4ccccc4)nc3-c3ccc(C)cc3)C2)cc1 (configuration not stated) : > 52.8
Cc1ccc(-c2nn(-c3ccccc3)cc2C2CC(c3ccccc3)=NN2c2ccc(S(N)(=O)=O)cc2)cc1 (configuration not stated) : > 98
NS(=O)(=O)c1ccc(N2N=C(c3ccc(Br)cc3)CC2c2cn(-c3ccccc3)nc2-c2ccc(F)cc2)cc1 (configuration not stated) : 25.9

Specify measured selectivity ratio for COc1ccc(C2=NN(c3ccc(S(N)(=O)=O)cc3)C(c3cn(-c4ccccc4)nc3-c3ccc(F)cc3)C2)cc1 (configuration not stated) .
> 56.4

Specify measured selectivity ratio for Cc1ccc(C2=NN(c3ccc(S(N)(=O)=O)cc3)C(c3cn(-c4ccccc4)nc3-c3ccc(F)cc3)C2)cc1 (configuration not stated) .
> 73.2

Specify measured selectivity ratio for COc1ccc(C2=NN(c3ccc(S(N)(=O)=O)cc3)C(c3cn(-c4ccccc4)nc3-c3ccccc3)C2)cc1 (configuration not stated) .
51.4

Specify measured selectivity ratio for NS(=O)(=O)c1ccc(N2N=C(c3ccc(Cl)cc3)CC2c2cn(-c3ccccc3)nc2-c2ccccc2)cc1 (configuration not stated) .
> 111

Specify measured selectivity ratio for COc1ccc(C2=NN(c3ccc(S(N)(=O)=O)cc3)C(c3cn(-c4ccccc4)nc3-c3ccc(OC)cc3)C2)cc1 (configuration not stated) .
78.9

Specify measured selectivity ratio for NS(=O)(=O)c1ccc(N2N=C(c3ccc(Cl)cc3)CC2c2cn(-c3ccccc3)nc2-c2ccc(Cl)cc2)cc1 (configuration not stated) .
> 99

Specify measured selectivity ratio for NS(=O)(=O)c1ccc(N2N=C(c3ccc(F)cc3)CC2c2cn(-c3ccccc3)nc2-c2ccccc2)cc1 (configuration not stated) .
> 225

Specify measured selectivity ratio for NS(=O)(=O)c1ccc(N2N=C(c3ccc(F)cc3)CC2c2cn(-c3ccccc3)nc2-c2ccc(F)cc2)cc1 (configuration not stated) .
> 212

Specify measured selectivity ratio for NS(=O)(=O)c1ccc(N2N=C(c3ccc(O)cc3)CC2c2cn(-c3ccccc3)nc2-c2ccccc2)cc1 (configuration not stated) .
> 98

Specify measured selectivity ratio for NS(=O)(=O)c1ccc(N2N=C(c3ccc(O)cc3)CC2c2cn(-c3ccccc3)nc2-c2ccc(F)cc2)cc1 (configuration not stated) .
36.9

###

Reported CC50 at 72 h values for a set of molecules
- assayProcedure: Cytotoxicity against African green monkey Vero cells assessed as reduction in cell viability after 72 hrs by MTT assay
- Assay type: cell-based
- runParameters: chlorocebus sabaeus
Your answer should be a plain number; it is taken to be in µM.

COc1ccc(C2=NN(c3ccc(S(N)(=O)=O)cc3)C(c3cn(-c4ccccc4)nc3-c3ccc(Cl)cc3)C2)cc1 (stereo not drawn) : 31.3
NS(=O)(=O)c1ccc(N2N=C(c3ccc(O)cc3)CC2c2cn(-c3ccccc3)nc2-c2ccc(F)cc2)cc1 (stereo not drawn) : 32

Specify measured CC50 at 72 h for COc1ccc(C2=NN(c3ccc(S(N)(=O)=O)cc3)C(c3cn(-c4ccccc4)nc3-c3ccc(OC)cc3)C2)cc1 (stereo not drawn) .
104

Specify measured CC50 at 72 h for COc1ccc(C2=NN(c3ccc(S(N)(=O)=O)cc3)C(c3cn(-c4ccccc4)nc3-c3ccccc3)C2)cc1 (stereo not drawn) .
40.2

###

- assayProcedure: Cytotoxicity against African green monkey Vero cells assessed as reduction in cell viability after 72 hrs by MTT assay
- Assay type: cell-based
- runParameters: chlorocebus sabaeus
readoutName: CC50 at 72 h

NS(=O)(=O)c1ccc(N2N=C(c3ccc(O)cc3)CC2c2cn(-c3ccccc3)nc2-c2ccccc2)cc1 (centres undefined) : > 161 µM
COc1cccc(C2=NN(c3ccc(S(N)(=O)=O)cc3)C(c3cn(-c4ccccc4)nc3-c3ccc(C)cc3)C2)c1OC (centres undefined) : > 57.4 µM
NS(=O)(=O)c1ccc(N2N=C(c3ccc(F)cc3)CC2c2cn(-c3ccccc3)nc2-c2ccc(F)cc2)cc1 (centres undefined) : > 753 µM
NS(=O)(=O)c1ccc(N2N=C(c3ccc(Br)cc3)CC2c2cn(-c3ccccc3)nc2-c2ccc(F)cc2)cc1 (centres undefined) : 49.4 µM
NS(=O)(=O)c1ccc(N2N=C(c3ccc(Cl)cc3)CC2c2cn(-c3ccccc3)nc2-c2ccccc2)cc1 (centres undefined) : > 207 µM

Specify measured CC50 at 72 h for COc1ccc(C2=NN(c3ccc(S(N)(=O)=O)cc3)C(c3cn(-c4ccccc4)nc3-c3ccc(F)cc3)C2)cc1 (centres undefined) .
> 53.1 µM

Specify measured CC50 at 72 h for NS(=O)(=O)c1ccc(N2N=C(c3ccc(F)cc3)CC2c2cn(-c3ccccc3)nc2-c2ccccc2)cc1 (centres undefined) .
> 807 µM

Specify measured CC50 at 72 h for Cc1ccc(C2=NN(c3ccc(S(N)(=O)=O)cc3)C(c3cn(-c4ccccc4)nc3-c3ccc(F)cc3)C2)cc1 (centres undefined) .
> 90.7 µM

Specify measured CC50 at 72 h for COc1ccc(C2=NN(c3ccc(S(N)(=O)=O)cc3)C(c3cn(-c4ccccc4)nc3-c3ccc(C)cc3)C2)cc1 (centres undefined) .
> 36.6 µM

###

- Tested on: Plasmodium falciparum
- assayProcedure: Antimalarial activity against Plasmodium falciparum
- Assay type: functional, organism-based
readoutName: IC50 (µM)
Your answer should be a plain number; it is taken to be in µM.

Specify measured IC50 for Clc1ccccc1C(c1ccccc1)(c1ccccc1)n1ccnc1 [CLOTRIMAZOLE] .
12.9

###

- Test system: Plasmodium falciparum
- assayProcedure: Antimalarial activity against chloroquine-sensitive Plasmodium falciparum 3D7 infected in red blood cells assessed as reduction in mature schizonts formation after 72 hrs by Giemsa-staining based assay
- Type: functional, organism-based
- runParameters: 3D7, 72 h
readoutName: IC50 (nM)
Your answer should be a plain number; it is taken to be in nM.

Specify measured IC50 for COc1ccc(/C=C(\C#N)c2nc3ccccc3[nH]2)cc1 .
69

###

- assayProcedure: Resistance Index, ratio of EC50 for chloroquine-resistant Plasmodium falciparum RKL9 to EC50 for chloroquine-sensitive Plasmodium falciparum 3D7
- Format: functional
Reported Ratio EC50 values for a set of molecules
Number only, no unit.

Sample records with Ratio EC50:
NS(=O)(=O)c1ccc(N2N=C(c3ccc(O)cc3)CC2c2cn(-c3ccccc3)nc2-c2ccc(F)cc2)cc1 (stereo not drawn) : 1.29
Cc1ccc(C2=NN(c3ccc(S(N)(=O)=O)cc3)C(c3cn(-c4ccccc4)nc3-c3ccc(C)cc3)C2)cc1 (stereo not drawn) : 1.14

Next up:
Specify measured Ratio EC50 for COc1ccc(C2=NN(c3ccc(S(N)(=O)=O)cc3)C(c3cn(-c4ccccc4)nc3-c3ccc(F)cc3)C2)cc1 (stereo not drawn) .
1.44

###

- Tested on: Plasmodium falciparum
- assayProcedure: Antimalarial activity against chloroquine-sensitive Plasmodium falciparum 3D7 infected in red blood cells assessed as reduction in mature schizonts formation after 24 hrs by Giemsa-staining based assay
- Type: functional, organism-based
- runParameters: 3D7, 24 h
Classification by EC50 | ranges: lower = under 2000 nM, middle = from 2000 nM up to 3000 nM, upper = 3000 nM and over

Study these solved cases before continuing.
COc1ccc(C2=NN(c3ccc(S(N)(=O)=O)cc3)C(c3cn(-c4ccccc4)nc3-c3ccc(OC)cc3)C2)cc1 (stereo not drawn) : middle
COc1ccc(C2=NN(c3ccc(S(N)(=O)=O)cc3)C(c3cn(-c4ccccc4)nc3-c3ccc(C)cc3)C2)cc1 (stereo not drawn) : lower
NS(=O)(=O)c1ccc(N2N=C(c3ccc(Cl)cc3Cl)CC2c2cn(-c3ccccc3)nc2-c2ccccc2)cc1 (stereo not drawn) : upper
NS(=O)(=O)c1ccc(N2N=C(c3ccc(Cl)cc3)CC2c2cn(-c3ccccc3)nc2-c2ccccc2)cc1 (stereo not drawn) : upper

Assign a bin to NS(=O)(=O)c1ccc(N2N=C(c3ccc(O)cc3)CC2c2cn(-c3ccccc3)nc2-c2ccc(F)cc2)cc1 (stereo not drawn)
lower

Assign a bin to Cc1ccc(C2=NN(c3ccc(S(N)(=O)=O)cc3)C(c3cn(-c4ccccc4)nc3-c3ccc(C)cc3)C2)cc1 (stereo not drawn)
lower

Assign a bin to NS(=O)(=O)c1ccc(N2N=C(c3ccc(F)cc3)CC2c2cn(-c3ccccc3)nc2-c2ccc(F)cc2)cc1 (stereo not drawn)
upper

Assign a bin to COc1cccc(C2=NN(c3ccc(S(N)(=O)=O)cc3)C(c3cn(-c4ccccc4)nc3-c3ccc(C)cc3)C2)c1OC (stereo not drawn)
lower

Assign a bin to COc1ccc(C2=NN(c3ccc(S(N)(=O)=O)cc3)C(c3cn(-c4ccccc4)nc3-c3ccc(F)cc3)C2)cc1 (stereo not drawn)
lower

Assign a bin to NS(=O)(=O)c1ccc(N2N=C(c3ccc(Cl)cc3)CC2c2cn(-c3ccccc3)nc2-c2ccc(Cl)cc2)cc1 (stereo not drawn)
middle

Assign a bin to COc1ccc(C2=NN(c3ccc(S(N)(=O)=O)cc3)C(c3cn(-c4ccccc4)nc3-c3ccc(Cl)cc3)C2)cc1 (stereo not drawn)
lower

Assign a bin to Cc1ccc(C2=NN(c3ccc(S(N)(=O)=O)cc3)C(c3cn(-c4ccccc4)nc3-c3ccc(F)cc3)C2)cc1 (stereo not drawn)
middle

Assign a bin to COc1ccc(C2=NN(c3ccc(S(N)(=O)=O)cc3)C(c3cn(-c4ccccc4)nc3-c3ccccc3)C2)cc1 (stereo not drawn)
lower

Assign a bin to NS(=O)(=O)c1ccc(N2N=C(c3ccc(F)cc3)CC2c2cn(-c3ccccc3)nc2-c2ccccc2)cc1 (stereo not drawn)
upper
